B1: Segment polarity protein dishevelled homolog DVL-3, residues 2 to 81; numbered along this chain, Q92997 (parent)
chain: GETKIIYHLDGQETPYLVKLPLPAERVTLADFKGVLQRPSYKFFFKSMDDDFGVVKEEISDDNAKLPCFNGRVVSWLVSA

- Variants of: B1
- Protocol notes: abundance fitness (aPCA) (normalised: wild type 0, dead -1); higher = more abundant; growth selection in yeast, the domain comes from the species named
- Run conditions: Homo sapiens
Where abundance fitness equals or exceeds -0.1, the correct label is Y; where it does not, the label is N.

Below are worked cases with known answers.
{"columns": ["Alteration", "Qualitative label"],
 "data": [
  ["V27C", "N"],
  ["R26L", "Y"],
  ["K56T", "Y"],
  ["D50K", "Y"]
]}

Here is the next item to consider.
Prompt: Kindly determine if abundance fitness recorded for K33E is above or exactly -0.1.
Completion: N
